Here the recorded Ratio is given for each entry.
# Test system: Gallus gallus
# assay-procedure: Effect on bone calcium mobilization was measured in vivo, in the vitamin D deficient chick
# Assay type: functional, Bone element
# Set-up: reference not given here
Respond using a number only.

Solved entries (count: 3):
sample_smiles=C=C1/C(=C\C=C2/CCC[C@]3(C)[C@@H]([C@H](C)Cc4cccc(C(C)(C)O)c4)CC[C@@H]23)C[C@@H](O)C[C@@H]1O measurement=7.7
sample_smiles=C=C1/C(=C\C=C2/CCC[C@]3(C)[C@@H]([C@H](C)Cc4cccc(O)c4)CC[C@@H]23)C[C@@H](O)C[C@@H]1O measurement=1
sample_smiles=C=C1/C(=C\C=C2/CCC[C@]3(C)[C@@H]([C@H](C)Cc4ccc(O)cc4)CC[C@@H]23)C[C@@H](O)C[C@@H]1O measurement=0.08

// returns reported Ratio for input `C=C1/C(=C\C=C2/CCC[C@]3(C)[C@@H]([C@H](C)Cc4cccc(C)c4)CC[C@@H]23)C[C@@H](O)C[C@@H]1O` 0.06

Data provenance is ChEMBL document CHEMBL1125933.
